targetDesc: furin, P09958;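 note: purified furin at 1:10 enzyme:substrate in 50 mM HEPES pH 7.5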
Sequence (P09958 whole entry): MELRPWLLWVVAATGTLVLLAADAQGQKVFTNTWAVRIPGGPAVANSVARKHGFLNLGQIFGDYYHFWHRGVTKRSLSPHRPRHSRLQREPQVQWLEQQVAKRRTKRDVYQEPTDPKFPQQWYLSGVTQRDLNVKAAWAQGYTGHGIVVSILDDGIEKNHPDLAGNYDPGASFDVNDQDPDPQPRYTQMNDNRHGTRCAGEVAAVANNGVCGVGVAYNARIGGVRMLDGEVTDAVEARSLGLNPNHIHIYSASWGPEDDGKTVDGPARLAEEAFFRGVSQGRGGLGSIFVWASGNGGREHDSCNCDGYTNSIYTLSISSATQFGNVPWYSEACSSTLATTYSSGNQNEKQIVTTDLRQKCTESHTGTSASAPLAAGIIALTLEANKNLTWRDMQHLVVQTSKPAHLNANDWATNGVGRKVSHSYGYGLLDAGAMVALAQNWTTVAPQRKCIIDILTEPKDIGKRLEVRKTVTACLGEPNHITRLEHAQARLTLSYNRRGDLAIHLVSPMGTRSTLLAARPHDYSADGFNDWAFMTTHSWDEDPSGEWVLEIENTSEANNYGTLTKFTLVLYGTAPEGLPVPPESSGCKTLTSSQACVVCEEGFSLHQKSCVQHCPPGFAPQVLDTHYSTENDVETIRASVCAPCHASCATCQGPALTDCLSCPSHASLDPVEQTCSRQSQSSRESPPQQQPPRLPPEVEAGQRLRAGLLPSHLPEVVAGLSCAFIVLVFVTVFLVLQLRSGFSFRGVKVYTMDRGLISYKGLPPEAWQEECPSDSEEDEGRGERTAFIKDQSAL
experimentalDetails: furin cleavage Z-score vs untreated control; higher = more cleavage, active = 3.5 or more, inactive = 1 or less, 8 variable residues between constant flanks
appliedConditions: 30 min
The list shows a part of the results. The hit rate among all sequences tested is not known here.
Provide the reported furin cleavage Z-score of each item.
Numbers only.

Would you please look over these solved cases?
{"sequenceData": "CARKDRRKKGAGNASASA [FS-2035]", "numericResult": 1.04}
{"sequenceData": "CAPALRSARSAGNASASA [FS-66]", "numericResult": 1.27}
{"sequenceData": "CAYGSRHIRLAGNASASA [FS-1107]", "numericResult": 2.07}

Here is another sequence to look at.
furin cleavage Z-score measured on CAACLRKLGVAGNASASA [HC1614] = 1.04
